Assay: self-splicing fitness, log relative to wild type (ln ratio); higher = more splicing; Tetrahymena group I intron in knt gene, E. coli kanamycin selection, DiMSum; sequences stand for … in CUCUCU…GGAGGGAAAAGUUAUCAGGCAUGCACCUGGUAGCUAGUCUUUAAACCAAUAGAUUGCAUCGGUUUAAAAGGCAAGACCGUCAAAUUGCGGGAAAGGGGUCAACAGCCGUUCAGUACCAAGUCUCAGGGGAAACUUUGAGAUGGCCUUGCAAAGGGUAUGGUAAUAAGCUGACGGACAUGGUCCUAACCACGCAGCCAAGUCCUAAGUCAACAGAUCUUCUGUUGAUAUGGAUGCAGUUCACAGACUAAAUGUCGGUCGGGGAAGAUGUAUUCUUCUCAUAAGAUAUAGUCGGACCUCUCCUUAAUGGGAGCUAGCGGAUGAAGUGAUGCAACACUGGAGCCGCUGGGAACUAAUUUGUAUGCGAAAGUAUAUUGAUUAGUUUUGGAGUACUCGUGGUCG;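 note: selection with 25 µg/mL kanamycin versus none on LB agar overnight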
Settings: 37 °C
ASSAY_ENDPOINT: self-splicing fitness (ln)
# output: bare number, no unit

1. ACCAAGCAAUAUUACGUGAU
-0.924
2. UACAAGCAAUAUUACGGCGA
0.0939
3. UUAGAGCAAUAUUACGGUAA
-0.0767
4. UUCCAGCAAUAUUACGCGCA
-0.358
5. CAGAAGCAAUAUUACGCCCG
0.147

Input: Consider the sequence shown here: `GCAUAGCAAUAUUACGGUCC` What is its recorded self-splicing fitness (ln)?
Output: -1.48

Input: What does the data say about its self-splicing fitness (ln)? Entry: `GUCCAGCAAUAUUACGUAGC`
Output: -0.149

* * *

Assay: self-splicing fitness, log relative to wild type (ln ratio); higher = more splicing; Tetrahymena group I intron in knt gene, E. coli kanamycin selection, DiMSum; sequences stand for … in CUCUCU…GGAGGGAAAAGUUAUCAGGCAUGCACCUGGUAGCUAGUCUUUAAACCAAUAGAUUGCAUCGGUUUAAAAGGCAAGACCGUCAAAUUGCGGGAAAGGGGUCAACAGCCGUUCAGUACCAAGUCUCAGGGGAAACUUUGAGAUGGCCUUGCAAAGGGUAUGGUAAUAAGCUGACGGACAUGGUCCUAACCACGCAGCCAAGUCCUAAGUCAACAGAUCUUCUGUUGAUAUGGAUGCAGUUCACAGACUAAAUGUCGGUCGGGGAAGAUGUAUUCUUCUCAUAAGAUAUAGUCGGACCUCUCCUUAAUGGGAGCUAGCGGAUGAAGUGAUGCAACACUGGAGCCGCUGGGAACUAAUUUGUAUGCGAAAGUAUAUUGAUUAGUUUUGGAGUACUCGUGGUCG
Settings: 37 °C
ASSAY_ENDPOINT: self-splicing fitness (ln)
The response must contain the number and no unit.

Would you please look over these solved cases?
1) GCACAGCAAUAUUACGCAUC
-0.51
2) AGUUAGCAAUAUUACGUUCU
-0.302
3) AGCUAGCAAUAUUACGUCCC
0.355
4) CCAGAGCAAUAUUACGACGU
-3.28
5) UCUUAGCAAUAUUACGUCAG
-1.28

Input: GET /values?readout=self-splicing fitness (ln)&item= `GAAGAGCAAUAUUACGGCAG`
Output: -1.97

Input: Would you kindly share the measured self-splicing fitness (ln) for `ACUUAGCAAUAUUACGCAAG` ?
Output: -1.32

Input: Endpoint output: self-splicing fitness (ln) of `CAUUAGCAAUAUUACGUAAC` . Value?
Output: -2.14

Input: Give the measured self-splicing fitness (ln) of `UCGGAGCAAUAUUACGCAUG` .
Output: -1.38

Input: State the recorded self-splicing fitness (ln) for this entry: `UCCUAGCAAUAUUACGGUCG`
Output: -1.59

Input: Look at this sequence and give its reported self-splicing fitness (ln). `UGUCAGCAAUAUUACGGGAC`
Output: -2.93

Input: Suppose we examine the sequence `UCCCAGCAAUAUUACGUGUC` ; what self-splicing fitness (ln) value has been reported?
Output: -2.44

Input: Which value of self-splicing fitness (ln) has been reported for `GGGCAGCAAUAUUACGGCGG` in the records?
Output: -1.99

Input: Need self-splicing fitness (ln) of `UGGGAGCAAUAUUACGGCCG` , thanks.
Output: -1.37

* * *

Assay: self-splicing fitness, log relative to wild type (ln ratio); higher = more splicing; Tetrahymena group I intron in knt gene, E. coli kanamycin selection, DiMSum; sequences stand for … in CUCUCU…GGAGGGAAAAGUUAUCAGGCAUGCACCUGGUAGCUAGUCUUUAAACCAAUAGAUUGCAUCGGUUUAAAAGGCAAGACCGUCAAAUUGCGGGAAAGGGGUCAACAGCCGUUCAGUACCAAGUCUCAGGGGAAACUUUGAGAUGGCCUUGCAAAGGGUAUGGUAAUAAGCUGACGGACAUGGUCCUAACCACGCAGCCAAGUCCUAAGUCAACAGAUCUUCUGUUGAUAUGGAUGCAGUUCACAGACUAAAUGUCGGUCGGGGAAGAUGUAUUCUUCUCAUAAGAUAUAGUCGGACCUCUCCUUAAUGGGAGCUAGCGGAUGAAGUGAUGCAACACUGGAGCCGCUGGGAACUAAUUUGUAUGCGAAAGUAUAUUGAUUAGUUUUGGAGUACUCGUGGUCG
Conditions: 37 °C
Here the recorded self-splicing fitness (ln) is given for each entry.
Answer with a number only.

Examples from the recorded data:
1. AUCAAGCAAUAUUACGCAGC
-1.8
2. AUUUAGCAAUAUUACGAUUA
-0.561

Input: Return reported self-splicing fitness (ln); argument: `UCUUAGCAAUAUUACGUGUA`
Output: -1.19

Input: Given the sequence `CAACAGCAAUAUUACGCCUA` , what is its reported self-splicing fitness (ln)?
Output: -1.31

Input: Quick one: self-splicing fitness (ln) of `CAGUAGCAAUAUUACGCGGC` ?
Output: -2.14

Input: Give the measured self-splicing fitness (ln) of `AAGGAGCAAUAUUACGCUCC` .
Output: -1.7

* * *

Experiment: self-splicing fitness, log relative to wild type (ln ratio); higher = more splicing; Tetrahymena group I intron in knt gene, E. coli kanamycin selection, DiMSum; sequences stand for … in CUCUCU…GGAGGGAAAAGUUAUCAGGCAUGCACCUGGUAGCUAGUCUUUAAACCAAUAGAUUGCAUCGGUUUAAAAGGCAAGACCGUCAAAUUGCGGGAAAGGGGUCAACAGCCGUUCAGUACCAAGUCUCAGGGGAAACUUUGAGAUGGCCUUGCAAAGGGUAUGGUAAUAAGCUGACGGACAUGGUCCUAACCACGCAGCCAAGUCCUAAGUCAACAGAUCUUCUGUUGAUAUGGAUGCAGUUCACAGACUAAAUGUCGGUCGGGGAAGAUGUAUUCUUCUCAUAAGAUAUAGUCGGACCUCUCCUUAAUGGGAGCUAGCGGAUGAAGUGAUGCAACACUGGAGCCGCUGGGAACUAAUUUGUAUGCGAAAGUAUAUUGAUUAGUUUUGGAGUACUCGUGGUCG
Conditions: 30 °C
Below, each entry is listed with its recorded self-splicing fitness (ln).
Enter a number only.

Here's what some known entries look like.
1. UAGCAGCAAUAUUACGGACA
-0.821
2. AAUGAGCAAUAUUACGGCGC
-1.82
3. UAGAAGCAAUAUUACGCUUG
-2.11
4. GAGUAGCAAUAUUACGCCAA
-1.98
5. CUGUAGCAAUAUUACGGUCG
-0.455

Input: Recorded self-splicing fitness (ln) for `CUCAAGCAAUAUUACGCGCC` , please?
Output: -1.95

Input: self-splicing fitness (ln) lookup needed for `CCGAAGCAAUAUUACGUCAA` , thanks.
Output: -3.82

Input: Name the reported self-splicing fitness (ln) value associated with the sequence `UUAAAGCAAUAUUACGCCUA`
Output: 0.0988

Input: Could you share which self-splicing fitness (ln) value was measured for `UUGAAGCAAUAUUACGGCGC` ?
Output: -2.04

Input: What self-splicing fitness (ln) value was documented for this sequence, `CCUCAGCAAUAUUACGGCCU` ?
Output: -4.16

Input: Tell me the measured self-splicing fitness (ln) of `CCGAAGCAAUAUUACGCUGG` , please.
Output: -2.83

Input: Suppose we examine the sequence `CCUAAGCAAUAUUACGGGCU` ; what self-splicing fitness (ln) value has been reported?
Output: -3.03

Input: Consider the sequence `CCAAAGCAAUAUUACGUACC` and give its measured self-splicing fitness (ln).
Output: -3.76

Input: Could you tell me which self-splicing fitness (ln) is on file for `UGCCAGCAAUAUUACGCGAC` ?
Output: -2.62

Input: So what does the record say about self-splicing fitness (ln) for `AUUUAGCAAUAUUACGAUUA` ?
Output: -1.4

Input: Any idea what self-splicing fitness (ln) was measured for `AGACAGCAAUAUUACGGCAA` ?
Output: -1.37

Input: Quick check: self-splicing fitness (ln) of `AGCGAGCAAUAUUACGAAGU` ?
Output: -3.59

Input: Give the measured self-splicing fitness (ln) of `GCACAGCAAUAUUACGUGAG` .
Output: 0.0789

Input: Quick one: self-splicing fitness (ln) for `CGACAGCAAUAUUACGUUAG` ?
Output: -2.51

Input: Can you look up the measured self-splicing fitness (ln) of `GUGAAGCAAUAUUACGACGA` for me?
Output: 0.184

Input: Name the recorded self-splicing fitness (ln) for `AACCAGCAAUAUUACGAGUA` .
Output: -1.07

Input: Reported self-splicing fitness (ln), sequence `GCCCAGCAAUAUUACGGUAC` : ____
Output: -1.27

Input: Name the reported self-splicing fitness (ln) value associated with the sequence `CGGAAGCAAUAUUACGACAG`
Output: -0.256

Input: What does the record list as self-splicing fitness (ln) for `GUAGAGCAAUAUUACGUGGU` ?
Output: -3.09

Input: Given the entry `CAAGAGCAAUAUUACGGCAU` , report its measured self-splicing fitness (ln).
Output: -3.14
